species on record: Homo sapiens; assay: Selectivity ratio of IC50 for human geranylgeranyltransferase-1 to IC50 for human farnesyltransferase
measured_metric: Selectivity ratio

Field: example entries. Status: answers known.
compound	Selectivity ratio
Cn1cnc(S(=O)(=O)N(CCN(Cc2cncn2C)c2ccc(-c3ccccc3)cc2)Cc2ccccc2)c1	0.7
Cn1cnc(S(=O)(=O)N(CCN(Cc2cncn2C)c2ccc(C#N)c(F)c2)CC2CCN(c3ncccn3)CC2)c1	41
Cn1cnc(S(=O)(=O)N(CCN(Cc2c[nH]cn2)c2ccc(Br)cc2)Cc2ccccc2)c1	6
Cc1noc(C)c1CN(CCN(Cc1cncn1C)c1ccc(C#N)cc1)S(=O)(=O)c1cn(C)cn1	2.7
C=C(Br)CN(CCN(Cc1cncn1C)c1ccc(C#N)cc1)S(=O)(=O)c1cn(C)cn1	31
Cn1cnc(S(=O)(=O)N(CCN(Cc2cncn2C)c2ccc(C#N)cc2)CC2CCCCC2)c1	8.8

(I) Cn1cncc1CN(CCN(Cc1ccccc1)S(=O)(=O)c1cccc2cccnc12)c1ccc(C#N)cc1
(II) Cn1cnc(S(=O)(=O)N(Cc2ccccc2)[C@@H]2CC[C@@H](N(Cc3cncn3C)c3ccc(C#N)cc3)C2)c1 (racemic)
Prompt: Kindly identify the item with the lower Selectivity ratio figure among these two: I and II Give the label of your selection.
Completion: II
(II: 19, I: 333)

(P) Cn1cncc1CN(CCN(CC1CCCCC1)S(=O)(=O)c1ccccn1)c1ccc(C#N)cc1F
(Q) Cn1cnc(S(=O)(=O)N(CCN(Cc2cncn2C)c2ccc(C#N)cc2)Cc2ccc(-n3cccc3)cc2)c1
(R) Cn1cnc(S(=O)(=O)N(CCN(Cc2cncn2C)c2ccc(C(=O)OC(C)(C)C)cc2)Cc2ccccc2)c1
Prompt: Sort entries by Selectivity ratio from minimum to maximum value. Dear reader, please state the labels in the requested order.
Completion: R, P, Q

====

target: Protein farnesyltransferase (Homo sapiens, UniProt P49354+P49356); experiment: Inhibition of human farnesyltransferase assessed as incorporation of [3H]FPP into H-Ras-CVLS
pIC50: −log10 of the molar value.
measured_metric: pIC50

Field: example entries. Status: answers known.
molecule	measured_metric	value_reported
Cn1cnc(S(=O)(=O)N(Cc2ccccc2)[C@H]2CCC[C@@H]2N(Cc2cncn2C)c2ccc(C#N)cc2)c1 (racemic)	pIC50	6.35
Cc1cccc(CN(CCN(Cc2cncn2C)c2ccc(C#N)cc2)S(=O)(=O)c2cn(C)cn2)c1	pIC50	7.27

(P) Cn1cnc(S(=O)(=O)N(CCN(Cc2cncn2C)c2ccc(C#N)cc2)CC(=O)NC(C)(C)C)c1
(Q) Cn1cnc(S(=O)(=O)N(CCN(Cc2cncn2C)c2ccc(C#N)cc2)Cc2cccc(-c3ccccc3)c2)c1
Prompt: Kindly identify the item with the lower pIC50 figure among these two: P and Q Give the label of your selection.
Completion: P
(P: 5.85, Q: 6.64)

(I) Cn1cncc1CN(CCN(CC1CCCCC1)S(=O)(=O)c1ccccn1)c1ccc(C#N)cc1
(II) Cn1cnc(S(=O)(=O)N(CCN(Cc2cncn2C)c2ccc(C(N)=O)cc2)Cc2ccccc2)c1
(III) Cc1ccccc1CN(CCN(Cc1cncn1C)c1ccc(C#N)cc1)S(=O)(=O)c1cn(C)cn1
Prompt: Sort entries by pIC50 from minimum to maximum value. Dear reader, please state the labels in the requested order.
Completion: II, I, III
(II: 5.28, I: 6.40, III: 7.29)

====

target: Geranylgeranyl transferase type I (Homo sapiens, UniProt P49354+P53609); experiment: Inhibition of human geranylgeranyltransferase-1 assessed as incorporation of [3H]GGPP into H-Ras-CVLL
pIC50: −log10 of the molar value.
measured_metric: pIC50

molecule	assay_target	measured_metric	value_reported
Cn1cncc1CN(CCN(CC1CCCCC1)S(=O)(=O)c1ccccn1)c1ccc(C#N)cn1	Geranylgeranyl transferase type I (Homo sapiens, UniProt P49354+P53609)	pIC50	6.16
C=C(Br)CN(CCN(Cc1cncn1C)c1ccc(C#N)cc1)S(=O)(=O)c1cn(C)cn1	Geranylgeranyl transferase type I (Homo sapiens, UniProt P49354+P53609)	pIC50	5.26

(A) Cn1cncc1CN(CCN(CC1CCCCC1)S(=O)(=O)c1ccccn1)c1ccc(C#N)cc1
(B) Cn1cnc(S(=O)(=O)N(Cc2ccccc2)[C@H]2CCC[C@@H]2N(Cc2cncn2C)c2ccc(C#N)cc2)c1 (racemic)
Prompt: Kindly identify the item with the lower pIC50 figure among these two: A and B Give the label of your selection.
Completion: B
(B: 5.04, A: 6.21)

====

biological target: Geranylgeranyl transferase type I (Homo sapiens, UniProt P49354+P53609); assay: Inhibition of human geranylgeranyltransferase-1 assessed as incorporation of [3H]GGPP into H-Ras-CVLL
# IC50 annotations

compound	IC50
Cn1cnc(S(=O)(=O)N(CCN(Cc2cncn2C)c2c(F)cc(C#N)cc2F)CC2CCN(c3ncccn3)CC2)c1	> 10 µM

Field IC50 (entry Cn1cnc(S(=O)(=O)N(CCN(Cc2cncn2C)c2ccc(C#N)cc2Cl)CC2CCN(c3ncccn3)CC2)c1 ) reads > 10 µM

Field IC50 (entry Cn1cnc(S(=O)(=O)N(CCN(Cc2cncn2C)c2ccc(C#N)cc2)Cc2ccc(-c3ccccc3)cc2)c1 ) reads 7.3 µM

Field IC50 (entry Cn1cnc(S(=O)(=O)N(CCN(Cc2cncn2C)c2ccc(C(=O)OC(C)(C)C)cc2)Cc2ccccc2)c1 ) reads 4.9 µM

Field IC50 (entry Cn1cnc(S(=O)(=O)N(CCN(Cc2cncn2C)c2ccc(C#N)cc2)CC2CCN(c3ncccn3)CC2)c1 ) reads > 10 µM

====

species: Homo sapiens; test: Selectivity ratio of IC50 for human geranylgeranyltransferase-1 to IC50 for human farnesyltransferase
measured_metric: Selectivity ratio

molecule	value_reported
Cn1cnc(S(=O)(=O)N(CCN(Cc2cncn2C)c2ccc(C#N)cc2)Cc2ccoc2)c1	19
Cn1cnc(S(=O)(=O)N(CCN(Cc2cncn2C)c2ccc(C#N)cc2)Cc2ccco2)c1	15
Cn1cncc1CN(CCN(Cc1ccccc1)S(=O)(=O)C1CC1)c1ccc(C#N)cc1	65
CCCS(=O)(=O)N(CCN(Cc1cncn1C)c1ccc(C#N)cc1)Cc1ccccc1	85
Cn1cnc(S(=O)(=O)N(CCN(Cc2cncn2C)c2ccc(C#N)cc2)Cc2ccc(C#N)cc2)c1	18

(1) Cn1cncc1CN(CCN(CC1CCCCC1)S(=O)(=O)c1ccccn1)c1ccc(C#N)cc1
(2) Cn1cncc1CN(CCN(Cc1ccccc1)S(=O)(=O)c1cccs1)c1ccc(C#N)cc1
(3) Cn1cnc(S(=O)(=O)N(CCN(Cc2cncn2C)c2ccc(C#N)cc2)CCn2cccc2)c1
(4) Cn1cnc(S(=O)(=O)N(CCCN(Cc2cncn2C)c2ccc(C#N)cc2)Cc2ccccc2)c1
(5) Cn1cncc1CN(CCN(Cc1ccccc1)S(=O)(=O)c1ccccc1)c1ccc(C#N)cc1
Prompt: Sort entries by Selectivity ratio from minimum to maximum value. Dear reader, please state the labels in the requested order.
Completion: 1, 5, 4, 3, 2
(1: 1.5, 5: 7.6, 4: 11, 3: 17, 2: 200)

====

# IC50 annotations
biological target: Geranylgeranyl transferase type 1 (Mus musculus, UniProt Q61239+Q8BUY9); assay: Inhibition of Rap1A geranylgeranylation expressed in mouse NIH3T3 cells

Field: example entries. Status: answers known.
molecular_string	IC50
Cn1cncc1CN(CCN(CC1CCCCC1)S(=O)(=O)c1ccccn1)c1ccc(C#N)cc1	6.2 µM
Cn1cnc(S(=O)(=O)N(CCN(Cc2cncn2C)c2ccc(C#N)cc2)CC2CCN(C(=O)OC(C)(C)C)CC2)c1	> 2 µM

Field IC50 (entry Cn1cnc(S(=O)(=O)N(CCN(Cc2cncn2C)c2ccc(C#N)cc2)CC2CCCCC2)c1 ) reads > 10 µM

Field IC50 (entry Cc1ccccc1CN(CCN(Cc1cncn1C)c1ccc(C#N)cc1)S(=O)(=O)c1cn(C)cn1 ) reads > 10 µM

Field IC50 (entry Cn1cnc(S(=O)(=O)N(CCN(Cc2cncn2C)c2ccc(C#N)cc2)Cc2ccc(-n3cccc3)cc2)c1 ) reads > 10 µM

Field IC50 (entry Cn1cnc(S(=O)(=O)N(CCN(Cc2cnc[nH]2)c2ccccc2)Cc2ccccc2)c1 ) reads > 10 µM

Field IC50 (entry Cn1cnc(S(=O)(=O)N(CCN(Cc2cncn2C)c2ccc(C#N)cc2)Cc2cccc(-c3ccccc3)c2)c1 ) reads > 10 µM

Field IC50 (entry Cn1cnc(S(=O)(=O)N(CCN(Cc2cncn2C)c2ccc(Br)cc2)Cc2ccccc2)c1 ) reads > 10 µM

Field IC50 (entry Cn1cnc(S(=O)(=O)N(CCN(Cc2cncn2C)c2ccc(C#N)cc2)Cc2ccco2)c1 ) reads > 10 µM

====

species on record: Homo sapiens; assay: Selectivity ratio of IC50 for human geranylgeranyltransferase-1 to IC50 for human farnesyltransferase
measured_metric: Selectivity ratio

molecular_string	value_reported
Cn1cnc(S(=O)(=O)N(CCN(Cc2cncn2C)c2ccc(C#N)cc2)Cc2cccs2)c1	2.6

(P) Cc1ccccc1CN(CCN(Cc1cncn1C)c1ccc(C#N)cc1)S(=O)(=O)c1cn(C)cn1
(Q) C=C(C)CN(CCN(Cc1cncn1C)c1ccc(C#N)cc1)S(=O)(=O)c1cn(C)cn1
Prompt: Field: entry with larger Selectivity ratio (options P / Q ). Give the label of your selection.
Completion: P
(P: 15, Q: 5.3)
